A collection of compounds and their measured GI50
Test system: KM12
Assay: NCI tumour cell line growth inhibition, 48 h
Activity calls are given as the source filed them. No stated cut-off is given here; in the data, active = GI50 up to about 1.1 µM and inactive = higher.

For orientation, consider the following solved cases.
COMPOUND	RECORDED_RESULT
O=C(CCN1CCCCC1)c1csc2ccccc12	33.1 µM (inactive)
CC(=O)OC[C@@]1(C)[C@@H]2[C@@H]3[C@@]4(CO[C@]3(C)C(=O)[C@@]3(OC(C)=O)C[C@H](C)[C@H](OC(C)=O)[C@@H]3[C@H]4OC(C)=O)[C@H](OC(=O)c3ccccc3)C[C@@H]21	> 100 µM (inactive)
N#CC(/C(CCCC(=O)Nc1cccc([N+](=O)[O-])c1)=N/NC(=O)c1cc2ccccc2cc1O)c1ccccc1 (stereo not given)	62.2 µM (inactive)
CCNCC(O)COc1ccc2c(c1)[n+]([O-])nc(N)[n+]2[O-] (stereo not given)	59.3 µM (inactive)
N=c1oc2ccccc2cc1C(=O)NC12CC3CC(CC(C3)C1)C2	12 µM (inactive)
CN1C/C(=C\c2cccs2)C(=O)/C(=C/c2cccs2)C1	21 µM (inactive)
C[N+](C)(C)CC1CCCCCCCCCCC1=O (stereo not given)	> 100 µM (inactive)
COC(=O)C1C(=O)C(C(=O)OC)C2CCC1N2C (stereo not given)	> 100 µM (inactive)

Sample Cc1ccc(C(=O)/C=C/N2CCN(c3cccc(C(F)(F)F)c3)CC2)cc1 ; GI50 observed: 18.7 µM (inactive)

Note to self: GI50 recorded for [O-][S+]1Cc2ccccc2CS1 (stereo not given) was 35.1 µM (inactive)
